assay: self-splicing fitness, log relative to wild type (ln ratio); higher = more splicing; Tetrahymena group I intron in knt gene, E. coli kanamycin selection, DiMSum; sequences stand for … in CUCUCU…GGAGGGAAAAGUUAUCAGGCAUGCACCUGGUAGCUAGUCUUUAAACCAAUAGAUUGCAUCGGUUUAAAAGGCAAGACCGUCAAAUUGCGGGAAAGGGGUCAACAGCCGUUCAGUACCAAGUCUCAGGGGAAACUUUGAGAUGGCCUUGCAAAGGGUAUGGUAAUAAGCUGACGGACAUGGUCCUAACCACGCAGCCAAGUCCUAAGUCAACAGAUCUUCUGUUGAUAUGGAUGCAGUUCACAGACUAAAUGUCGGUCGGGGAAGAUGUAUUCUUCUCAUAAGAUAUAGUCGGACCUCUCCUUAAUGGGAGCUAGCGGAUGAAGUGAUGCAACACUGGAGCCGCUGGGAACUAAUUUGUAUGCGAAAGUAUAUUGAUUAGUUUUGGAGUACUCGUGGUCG; conditions: 30 °C;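 further: selection with 25 µg/mL kanamycin versus none on LB agar overnight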
Listed below: self-splicing fitness (ln) values for each entry.

GAUAAGCAAUAUUACGUGGC -3.32
CCGGAGCAAUAUUACGCGAG -2.87
CGAUAGCAAUAUUACGUUAC -3.47

query: Please list self-splicing fitness (ln) recorded for the sequence "ACUAAGCAAUAUUACGUCUC"
result: -2.79

query: Please list self-splicing fitness (ln) recorded for the sequence "UCUAAGCAAUAUUACGCACA"
result: -2.26

query: Please list self-splicing fitness (ln) recorded for the sequence "GUGUAGCAAUAUUACGUUCU"
result: -0.842
